Origin of the recorded values: patent US20220195049A1

Consider the following binders and their measured Kd readings.
target: T1, PD-L1-Fc (PD-L1 antigen protein, extracellular region Met1-Thr239 fused to human Fc) (human, UniProt Q9NZQ7 19-239); test: BLI (Octet); PD-1-coated biosensor dipped in a mix of PD-L1 antigen protein and antibody; KD from the Octet software
T1 construct: range 1-239; the secreted protein lacks it; also called PD-L1-Fc antigen; pCEP4-PDL1-Fc product; not shown: human Fc fragment of the pCEP4-Fc vector
T1 sequence (Q9NZQ7 19-239): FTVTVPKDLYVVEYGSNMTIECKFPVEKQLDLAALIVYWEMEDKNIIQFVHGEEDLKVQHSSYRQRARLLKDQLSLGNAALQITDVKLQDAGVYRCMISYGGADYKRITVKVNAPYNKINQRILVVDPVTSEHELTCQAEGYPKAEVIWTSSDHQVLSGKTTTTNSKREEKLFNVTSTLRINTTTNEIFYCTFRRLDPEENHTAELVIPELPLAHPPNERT

# Binder, Kd [nM]
measured = [
    ("KL001-20 (antibody, V domains shown) VH: QVQLVESGAEVKKPGSSVKVSCKASGGTFSSYAISWVRQAPGQGLEWMGRIIPIMGIANYAQKFQGRVTVTADKSTSTAYMELSSLRSEDTAVYYCARSGYGYAYGSFDYWGQGTLVTVSS VL: QLVLTQPPSVSGAPGQTVTISCTGPTIGAGYDVHWYQQLPGAAPKLLIYGNLNRPSGVPDRFSGSKSGTSASLAITDLQAEDEADYYCQSYDSTLGVVFGGGTKLTVL", 0.0213),
    ("KL001-08 (antibody, V domains shown, In the Biacore assay it was captured by anti-human IgG (Fc), so it carried a human Fc there; also called KL001-8) VH: QVQLVESGAEVKKPGSSVKVSCKASGGTFSGYAISWVRQAPGQGLEWMGRIIPALGIANYAQKFQGRVTVTADKSTSTAYMELSSLRSEDTAVYYCARSGYGYAYGSFDYWGQGTLVTVSS VL: QLVLTQPPSVSGAPGQTVTISCTGPTIGAGYDVHWYQQLPGAAPKLLIYGNLNRPSGVPDRFSGSKSGTSASLAITDLQAEDEADYYCQSYDSTHGVVFGGGTKLTVL", 0.0142),
    ("KL001-04 (antibody, V domains shown) VH: QVQLVESGAEVKKPGSSVKVSCKASGGTFSSYAISWVRQAPGQGLEWMGRIIPILGIANYAQKFQGRVTVTADKSTSTAYMELSSLRSEDTAVYYCARSGYGYAYGSFAAWGQGTLVTVSS VL: QLVLTQPPSVSGAPGQTVTISCTGPTIGAGYDVHWYQQLPGAAPKLLIYGNLNRPSGVPDRFSGSKSGTSASLAITDLQAEDEADYYCQSYDSTLGVVFGGGTKLTVL", 0.0136),
]
